- PROCEDURE DETAILS: Solubility
- Assay type: physicochemical
ENDPOINT LABEL: solubility

For Cn1cc(-c2ccc(S(=O)(=O)[C@@H]3C[C@@H](C(=O)NC4(C#N)CC4)N(C(=O)C4(C(F)(F)F)CC4)C3)c(C(F)(F)F)c2)cn1 [RO5459072] the compound record lists solubility as < 0.02 mg/mL

* * *

- PROCEDURE DETAILS: Single ascending dose
- Type: in vivo, human
- CONDITIONS: both, human, plasma, oral, 600 mg, noncompartmental analysis apparent terminal half-life, fasted, highest doses between 100 and 600 mg
ENDPOINT LABEL: half-life

For Cn1cc(-c2ccc(S(=O)(=O)[C@@H]3C[C@@H](C(=O)NC4(C#N)CC4)N(C(=O)C4(C(F)(F)F)CC4)C3)c(C(F)(F)F)c2)cn1 the compound record lists half-life as 780 to 960 min

* * *

- PROCEDURE DETAILS: Multiple ascending dose
- Format: in vivo, human
- CONDITIONS: both, human, plasma, oral, average estimated terminal half-lives, fed, 50 mg, 100 mg, 200 mg doses
ENDPOINT LABEL: half-life

For Cn1cc(-c2ccc(S(=O)(=O)[C@@H]3C[C@@H](C(=O)NC4(C#N)CC4)N(C(=O)C4(C(F)(F)F)CC4)C3)c(C(F)(F)F)c2)cn1 [RO5459072] the molecule record lists half-life as 8 to 10 h

* * *

- PROCEDURE DETAILS: Single ascending dose
- Format: in vivo, human
- CONDITIONS: both, human, plasma, oral, 100 mg, Tmax, fed
ENDPOINT LABEL: Tmax (h)
Form entry: value (h) — number only.

For Cn1cc(-c2ccc(S(=O)(=O)[C@@H]3C[C@@H](C(=O)NC4(C#N)CC4)N(C(=O)C4(C(F)(F)F)CC4)C3)c(C(F)(F)F)c2)cn1 [RO5459072] the compound record lists Tmax as 5
